- TEST_SUMMARY: Moisture sorption/desorption studies (hygrostat, storage at different temperatures and relative humidity)
- Assay type: physicochemical
- TEST_PARAMETERS: 37° C., 75% RH, 15 d; hydrochloride monohydrate
Where a name gives a salt, the structure may show the parent alone.
ATTRIBUTE_MEASURED: water content (Table III) (%)

[
  {
    "MOLECULE": "CN1C2CCC1CC(NC(=O)n1c(=O)[nH]c3ccccc31)C2 (stereo not shown) [Compound 2a, hydrochloride monohydrate]",
    "ATTRIBUTE_MEASURED": "water content (Table III)",
    "RECORDED_NUMBER": 5.8
  }
]

----------
- TEST_SUMMARY: Moisture sorption/desorption studies (hygrostat, storage at different temperatures and relative humidity)
- Type: physicochemical
- TEST_PARAMETERS: 37° C., 94% RH, 2 h
ATTRIBUTE_MEASURED: water content (Table III) (%)

[
  {
    "COMPOUND": "CN1C2CCC1CC(NC(=O)n1c(=O)[nH]c3ccccc31)C2 (stereo not shown) [Compound 1a, reference compound]",
    "RECORDED_NUMBER": 1.93
  }
]
